Cited source: paper PMC3009956

Hi there, I'd appreciate the recorded IC50 for every entry that follows.
- Target Or Test System: HLA-A*0301 (Homo sapiens)
- Assay Name: MHC-peptide binding assay, inhibition of binding of radiolabeled standard peptide
- Test Settings: read-out: MHC binding affinity HLA-A*0301
- Excerpt: Assays were as described.
Where no end group is shown, it is not given here.
State just the number; it will be interpreted in nM.

[in] Looking for the measured IC50 of STFWPCLLR , can you help?
[out] 22

[in] Query SSAYVFSVK next
[out] 12

[in] Query AVVSLLRLLK next
[out] 17

====

Hi there, I'd appreciate the recorded pIC50 for every entry that follows.
- Target Or Test System: HLA-A*3001 (Homo sapiens, UniProt P04439, D140H/D185E/E176W/F33S/G80R/H175R/K168Q/R138E/R41S)
- Sequence (P04439 25-365 limits assumed, stated change not applied): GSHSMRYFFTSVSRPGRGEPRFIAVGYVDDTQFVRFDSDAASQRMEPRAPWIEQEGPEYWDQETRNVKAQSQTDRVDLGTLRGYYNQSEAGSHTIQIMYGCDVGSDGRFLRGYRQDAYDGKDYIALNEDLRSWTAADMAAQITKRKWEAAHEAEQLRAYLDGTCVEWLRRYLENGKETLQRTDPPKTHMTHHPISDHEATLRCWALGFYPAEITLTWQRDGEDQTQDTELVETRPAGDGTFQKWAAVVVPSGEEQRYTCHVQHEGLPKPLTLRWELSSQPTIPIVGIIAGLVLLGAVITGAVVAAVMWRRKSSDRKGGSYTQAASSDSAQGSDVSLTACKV
- Assay Name: MHC-peptide binding assay, inhibition of binding of radiolabeled standard peptide
- Test Settings: read-out: MHC binding affinity HLA-A*3001
Where no end group is shown, it is not given here.
Would you please state pIC50, meaning minus log10 of the concentration in mol/L, as a bare number?

[in] Looking for the measured pIC50 of SSAYVFSVK , can you help?
[out] 5.74

[in] Query STFWPCLLR next
[out] 5.90

[in] Query AVVSLLRLLK next
[out] 8.09

====

- Target Or Test System: HLA-A*6801 (Homo sapiens, UniProt P04439, A269V/D185E/E176V/E277Q/E87N/F33Y/G231S/I121M/I166T/I218V/L180W/L300P/L318F/N151K/P208A/P217A/Q86R/R169H/T345S)
- Assay Name: MHC-peptide binding assay, inhibition of binding of radiolabeled standard peptide
- Test Settings: read-out: MHC binding affinity HLA-A*6801
Where no end group is shown, it is not given here.
Hi there, I'd appreciate the recorded pIC50 for every entry that follows.
Would you please state pIC50, meaning minus log10 of the concentration in mol/L, as a bare number?

[in] Looking for the measured pIC50 of SSAYVFSVK , can you help?
[out] 8.68

[in] Query AVVSLLRLLK next
[out] 7.03

[in] Query STFWPCLLR next
[out] 9.01

====

Hi there, I'd appreciate the recorded pIC50 for every entry that follows.
- Target Or Test System: HLA-A*3101 (Homo sapiens, UniProt P04439, A270S/D185E/E176V/E277Q/F33T/G231S/G80R/H175R/I121M/I218V/I322F/K168Q/L300P/L318F/M331R/P217A/Q94H/R138Q/T323A/T345S/T97I/V358M)
- Assay Name: MHC-peptide binding assay, inhibition of binding of radiolabeled standard peptide
- Test Settings: read-out: MHC binding affinity HLA-A*3101
Where no end group is shown, it is not given here.
Would you please state pIC50, meaning minus log10 of the concentration in mol/L, as a bare number?

[in] Looking for the measured pIC50 of AVVSLLRLLK , can you help?
[out] 5.89

[in] Query STFWPCLLR next
[out] 8.92

[in] Query SSAYVFSVK next
[out] 7.01

====

Hi there, I'd appreciate the recorded pIC50 for every entry that follows.
- Target Or Test System: HLA-A*3301 (Homo sapiens, UniProt P04439, A270S/D185E/E176V/E277Q/E87N/F33T/G231S/H175R/I121M/I218V/I322F/K168Q/K210R/L300P/L318F/M331R/P217A/Q86R/Q94H/R138Q/T323A/T345S/T97I/V358M/Y195H)
- Assay Name: MHC-peptide binding assay, inhibition of binding of radiolabeled standard peptide
- Test Settings: read-out: MHC binding affinity HLA-A*3301
Where no end group is shown, it is not given here.
Would you please state pIC50, meaning minus log10 of the concentration in mol/L, as a bare number?

[in] Looking for the measured pIC50 of AVVSLLRLLK , can you help?
[out] 5.96

[in] Query SSAYVFSVK next
[out] 6.74

[in] Query STFWPCLLR next
[out] 8.47
